The reported numbers originate from ChEMBL document CHEMBL4834480.

Biological target: Voltage-gated inwardly rectifying potassium channel KCNH2 (Homo sapiens)
Sequence (Q12809 whole entry): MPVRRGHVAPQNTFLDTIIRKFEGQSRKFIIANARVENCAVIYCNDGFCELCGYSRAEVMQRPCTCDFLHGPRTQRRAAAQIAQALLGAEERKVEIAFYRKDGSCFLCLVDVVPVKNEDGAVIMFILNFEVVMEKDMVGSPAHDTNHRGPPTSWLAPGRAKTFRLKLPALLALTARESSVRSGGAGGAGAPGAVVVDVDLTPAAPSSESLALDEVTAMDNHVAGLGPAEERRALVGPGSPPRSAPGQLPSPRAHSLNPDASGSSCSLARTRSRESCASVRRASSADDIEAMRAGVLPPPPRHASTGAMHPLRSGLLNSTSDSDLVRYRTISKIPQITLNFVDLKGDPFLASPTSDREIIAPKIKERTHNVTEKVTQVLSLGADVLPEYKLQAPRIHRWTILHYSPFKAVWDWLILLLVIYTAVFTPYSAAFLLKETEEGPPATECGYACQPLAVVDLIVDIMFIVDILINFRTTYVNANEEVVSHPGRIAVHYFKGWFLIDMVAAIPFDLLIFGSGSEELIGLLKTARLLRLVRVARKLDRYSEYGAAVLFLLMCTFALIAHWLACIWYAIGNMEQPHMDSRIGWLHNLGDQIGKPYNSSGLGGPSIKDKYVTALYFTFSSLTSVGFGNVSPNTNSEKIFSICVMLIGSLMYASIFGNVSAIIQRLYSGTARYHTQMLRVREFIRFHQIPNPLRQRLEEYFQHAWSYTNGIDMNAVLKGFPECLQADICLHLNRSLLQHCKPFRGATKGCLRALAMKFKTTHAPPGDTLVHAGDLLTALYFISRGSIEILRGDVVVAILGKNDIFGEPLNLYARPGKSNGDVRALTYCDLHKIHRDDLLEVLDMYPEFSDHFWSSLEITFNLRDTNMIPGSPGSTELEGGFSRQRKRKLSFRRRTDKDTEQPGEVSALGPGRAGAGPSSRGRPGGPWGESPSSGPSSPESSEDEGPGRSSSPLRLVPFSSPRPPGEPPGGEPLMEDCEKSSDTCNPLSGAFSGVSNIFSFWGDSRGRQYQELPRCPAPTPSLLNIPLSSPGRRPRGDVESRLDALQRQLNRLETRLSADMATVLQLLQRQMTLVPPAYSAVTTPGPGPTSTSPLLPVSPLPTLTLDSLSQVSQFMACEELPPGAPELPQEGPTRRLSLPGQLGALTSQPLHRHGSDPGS
measured_quantity: IC50

Look up IC50: CC(=O)c1ccc(S(=O)(=O)c2c(C)c(C(=O)O)n(CCCOc3cc(C)c(Cl)c(C)c3)c2C)cc1
> 30 µM

====

Molecular target: Bcl-2-related protein A1 (Homo sapiens, UniProt Q16548)
Sequence (Q16548 whole entry): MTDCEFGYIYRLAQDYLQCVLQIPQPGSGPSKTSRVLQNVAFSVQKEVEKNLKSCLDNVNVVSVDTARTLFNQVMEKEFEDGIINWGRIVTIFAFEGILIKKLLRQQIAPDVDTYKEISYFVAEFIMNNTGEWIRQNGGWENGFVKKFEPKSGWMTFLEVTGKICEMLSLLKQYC
measured_quantity: Kd

Look up Kd: CC(=O)c1ccc(S(=O)(=O)c2c(C)c(C(=O)O)n(CCCOc3cc(C)c(Cl)c(C)c3)c2C)cc1
> 10 µM
